The reported numbers originate from patent US8557833B2.

# system: JAK3 (Homo sapiens)
# Sequence (P52333 whole entry, species assumed): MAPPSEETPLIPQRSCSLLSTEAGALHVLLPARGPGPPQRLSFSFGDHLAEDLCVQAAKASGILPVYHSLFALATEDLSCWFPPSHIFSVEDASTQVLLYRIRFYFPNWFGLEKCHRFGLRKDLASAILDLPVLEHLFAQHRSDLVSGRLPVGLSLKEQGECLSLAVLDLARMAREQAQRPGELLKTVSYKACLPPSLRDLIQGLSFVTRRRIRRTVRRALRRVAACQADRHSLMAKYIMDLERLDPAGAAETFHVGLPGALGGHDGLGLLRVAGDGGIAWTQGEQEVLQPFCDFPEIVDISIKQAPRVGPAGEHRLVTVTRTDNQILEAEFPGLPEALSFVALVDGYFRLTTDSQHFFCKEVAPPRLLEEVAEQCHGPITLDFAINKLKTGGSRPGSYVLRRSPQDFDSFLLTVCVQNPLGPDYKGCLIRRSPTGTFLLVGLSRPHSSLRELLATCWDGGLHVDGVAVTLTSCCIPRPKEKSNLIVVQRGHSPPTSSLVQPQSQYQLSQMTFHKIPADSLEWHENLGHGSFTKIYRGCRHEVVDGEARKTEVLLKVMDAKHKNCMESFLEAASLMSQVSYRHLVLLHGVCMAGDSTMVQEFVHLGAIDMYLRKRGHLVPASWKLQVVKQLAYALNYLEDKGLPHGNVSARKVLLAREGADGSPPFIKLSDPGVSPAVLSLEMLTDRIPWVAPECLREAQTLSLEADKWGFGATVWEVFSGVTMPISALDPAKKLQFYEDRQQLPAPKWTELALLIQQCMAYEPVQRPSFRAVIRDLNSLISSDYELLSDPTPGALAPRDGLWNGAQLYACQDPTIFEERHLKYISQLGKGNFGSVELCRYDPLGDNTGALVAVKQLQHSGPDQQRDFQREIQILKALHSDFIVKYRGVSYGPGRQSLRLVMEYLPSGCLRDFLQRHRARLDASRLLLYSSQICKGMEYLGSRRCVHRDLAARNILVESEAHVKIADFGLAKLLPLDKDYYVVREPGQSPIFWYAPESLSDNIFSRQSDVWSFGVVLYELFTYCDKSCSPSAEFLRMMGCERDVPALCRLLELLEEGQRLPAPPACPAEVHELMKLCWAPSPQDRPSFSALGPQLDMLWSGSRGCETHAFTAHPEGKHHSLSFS
# testProtocol: biochemical
observationType: Ki (nM)

Guide cases for Ki, answers given:
- Cc1cc(Nc2cc(N3CCC3)nc(Sc3ccc(NC(=O)c4cccc(C)c4Cl)cc3)n2)n[nH]1: 61
- Cc1cc(Nc2cc(N3CCC3)nc(Sc3ccc(NC(=O)c4cccc(C(F)(F)F)c4F)cc3)n2)n[nH]1: 220

a: CCc1cccc(C(=O)Nc2ccc(Sc3nc(Nc4cc(C)[nH]n4)cc(N4CCC4)n3)cc2)c1Cl
b: Cc1cc(Nc2cc(N3CCC3)nc(Sc3ccc(NC(=O)c4ccccc4Cl)cc3)n2)[nH]n1
Pick the one with the larger Ki: a vs b Lab log: write the label of the selected item as the result.
b
